# TEST_METHOD_NOTES: yeast display, Sf9 membrane polyspecificity reagent, FACS + sequencing; frameworks hold sequencing errors
ASSAY_METRIC: polyreactivity (PSR sort gate)

Worked examples, 4 sequences total:
>>> experimental_value("QVQLVESGGGLVQAGGSLRLSCAASGFTFYGYGMGWYRQAPGKERELVAGISSGGGSTIYADSVKGRFTISRDNAKNTVYLQMNSLKPEDTAVYYCAADYWPYSYDTYPAEFDYWGQGTQVTVSS")
"low polyreactivity"
>>> experimental_value("QVQLVESVGGLVQAGGSLRLSCAASGRTFRNNAMGWYRQAPGTEREFVAVISNTGGSTYYADSVKGRFTISRDNAKNTVYLQLNSLKPEDTAVYYCAVRPRYSQYYYWGQGTQVTVSS")
"high polyreactivity"
>>> experimental_value("QVQLVESGGGLVQAGGSLRLSCAASGFTFVYYAMGWYRQAPGKEREFVATISSRGDSTYYADSVKGRFTISRDNAKNTVYLQMNSLKPEDTAVYYCAADYDRKTRYGYLGQGTQVTVSS")
"low polyreactivity"
>>> experimental_value("QVQLVDSGRGLVQAGGSLRLSCAASGSIFYYNTMGWYRQAPVKERELVAAISSSDGSTYYADSVKGRFTISRDNAKNTVYLQMNSLKPEDTAVYYCNADLIYGEEYDYWGQGTQVTVSS")
"low polyreactivity"

Now examine the next entry.
The sequence listed as QVQLVESGGGLVQAGGSLRLICAASGSTFEYSTMGWYRPAPGKERELVAAINSSGGRTYYADSVKGRFTISRDNAKNTVYLQMNSLKPEDTAVYYCNARWRSGPRAYDYWGQGTQVTLSS shows polyreactivity (PSR sort gate) equal to high polyreactivity

* * *

# TEST_METHOD_NOTES: yeast display, Sf9 membrane polyspecificity reagent, FACS + sequencing; frameworks hold sequencing errors
ASSAY_METRIC: polyreactivity (PSR sort gate)

>>> experimental_value("QVQLVESGGGLVQAGGSLRLSCAASGSIFSSNVMGWYRQAPGKERELVAAITRRGSTTYYADSVKGRFTISRDNAKNTVYLQMNSLKPEDTAVYYCATKAKYGRQYLMDYWGQGTQVTVSS")
"high polyreactivity"
>>> experimental_value("QVQLVESGGGLVQAGGSLRLSCAASGSIFRGNAMGWYRQAPGKERELVAAISKSGGSTYYADSVKGRFTISRDNAKNTVNLQMNSLKPEDTAVYYCAARTTYLYGMYYWGQGTQVTVSS")
"low polyreactivity"
>>> experimental_value("QVQLVESWGGLVQAVGSLRLTCAASGVIFAIYAIGLYRQAAGKEREMVSSIRWSSGRTYYPDSVKGRFTISRDNAKNTVYLQMNSLKPEDTAVYNCAATPSIFTIHRQDYDYWGQGTQVTVSS")
"high polyreactivity"
>>> experimental_value("QVQLVESGGGLVQAGGSLCLSCAASGSTLRRYAMGWYRQAPGKERELVAAITYRSGSTYYADSVKGRFTISRDNAKNTVYLQMNSLKPEDTAVYYCAKVGYVSKYWFAGDYWGQGTQVTVSS")
"high polyreactivity"

Record polyreactivity (PSR sort gate) per entry; entries follow.
1. QDQLVESGGGLVQAGGSLRLSCAASGRTFTGYTMGWYRQAPGKERELVASISSSGGRTYYADSVKGRFTISRDNAKNTVFLQMKSLKPEDTAVYYCAKRGAYGYGYYSYDYWGQGTQVTVSS
2. QVQLVESGVGVVQAGGSLRLSCAASGRTFLRYTMGGYRQAPGKEREFVAAISYDTSSTYYADSVKGRFTISRDNAKNTVYLQMNSLKPEDTAVYYCAATLSRVSLSYGYWGLGTQVTVSS

a:
1: high polyreactivity; 2: low polyreactivity

Record polyreactivity (PSR sort gate) per entry; entries follow.
1. QVQLVESGGGLVQAGGSRRLSCAASGSTFAYYAMGWYRQAPGKERELVAAISWRGGSTYYADSVKGRFTISRDNAKNTVYLQMNSLKPEDTAVYYCATLSAWKASSYDYWGQGTQVTVSS
2. QVQLVESGGGLVQAGGSLRLSCAASGSTFDKKAMGWYRQAPGKERELVAAITWRGGRTYYADSVKGRFTISRDNAKNTVYLQLNSLKPEDTAVYYCNKVSWEQMDYWGQGTQVTVSS
3. QVQLVESGGGLVQARGSLRLSCAASGYIINQYTKGWYRQAPGKERELVADISSGGSTKYADSVKGRFTISRDNGKNTVSLQMNSLKPEDTAVYYCNGEYDSGSPTAYDWEYDYWVQGTQVTVSS
4. QVQLVESGGGLVQAGGSLRLSCAASGRTFSYYAMGWSRQAPGKERELVATIRFSGGGTYYADSVKGRFTISRDNAKNTVYLLMNSLKPEATAVYYCAALNYHKFAHKYDYWGQGTQVTVSS
5. QVQLVESGGGLVQAGGSLRLSCAASGSTFAYYAMGWYRPAPGTERELVAAISSGGSTYYADSVKGRFTISRDNAKNTVYLQMNSLKPEDTAVYYCAADAVKASVSYIVPYAAYDYWGQGTQVTVSS
6. QVQLVESGGGLVQAGGSLRLSCAASGSTFIRYAMGWYRQAPGKERELVAAIRRTGASTYYADSVKGRFTISRDNAKNTVYLQMNSLKPEDTAVYYCAARYSIWSWNGLDYWGQGTQVTVSS

a:
["high polyreactivity", "low polyreactivity", "high polyreactivity", "low polyreactivity", "low polyreactivity", "high polyreactivity"]

Record polyreactivity (PSR sort gate) per entry; entries follow.
1. QVQLVESGGGLVQAGGSLRVSCAASGSTFSYNAMGWYRQAPGKERELVASINSRGGTTYYADTVKVRFTISRDNAKNTVYLQMKSLKPEDTAVYYCATDVYRLGEYDYWGQGTQVTVSS
2. QVQLVESGGGLVQAGGSLRLSCAASGRTFILNAMGWYRQAPGKERELVAAISWSGGSTYYADSVKGRFTISRDNAKNTVYLQMNCLKPEDTAVYYCAKRYVDPLGSGTHGSWGQGTQVTVSS
3. QDQLVQSGGGLVQAGGSLRLSCAASGFTFYYYAMGWYRQAPGKETELVAGISKSGGITYYADSVKGRFTISRDNAKNTVYLQMNSLKPEDTAVYYCAAAAWYQFFLYRYTYEYWGQGTQVTVSS

a:
["low polyreactivity", "low polyreactivity", "low polyreactivity"]

Record polyreactivity (PSR sort gate) per entry; entries follow.
1. QVQLVESGGGLVQAGGSLRLSCAASGITFSRNARGGERQAPGQERELVATITSGGSTNYADSVKGRFTISRDNAKNTVYLQMNSLKPEDTAVFYCNAVWNTFISGRSYDYWGQGTQVTVSS
2. QVQLVESGGGLVQAGGSLRLSCAASGSIFWYNAMVWYRQAPGKERELVAAISYSGDRTYYADSVKGRFTISRDNAKYTVYLQMNSLKPEDTAFYYCAKAGTGFYNSWWEDYWGQGTQVTVSS

a:
1: low polyreactivity; 2: low polyreactivity

Record polyreactivity (PSR sort gate) per entry; entries follow.
1. QVQLVESGGGLVQAGGSLRLSCAASGSIFVNYAKGWYRQAPGKERELVAAITRSGGRTYYADSVKGRFTISRDNAKNTVYLQMNSLKPEDTAVYYCNKRRYPYGWGQGTQVNVSS
2. QVQLVESGGGLVQAGGSLRLSCAASGRTLAPYAMGWYRQAPGKERELVAISTIGGSTYYADSVKGRFTISRDNAKNTVYLQMNSLKPEDTAVYYCAADGNSTGVYLDGGEGFAYDYWGQGTQVTVSS
3. QVQLVESGGGLVQAGGSLRLSCAASGSTFTNYAMGWYRQAPGKERELVAAINNDRTNYADSVKGRFTISRDNAKNTVYLQMNSLKPEDTAVYYCAAQWRVYGYKISRRNYWGQGTQVTVSS
4. QVQLVESGGGLVQAGGSLRLSCAASGRTFFYYAMGSYRQAPGKERELVATITKRGGSTYYADSVKGRFTISRDNAKNTVYLQMNSLKPEDTAVYYCNAAGNPVSRYHYDYWGQGTQVTVSS

a:
1. high polyreactivity
2. low polyreactivity
3. high polyreactivity
4. high polyreactivity

* * *

# TEST_METHOD_NOTES: yeast display, Sf9 membrane polyspecificity reagent, FACS + sequencing; frameworks hold sequencing errors
ASSAY_METRIC: polyreactivity (PSR sort gate)

Worked examples, 5 sequences total:
>>> experimental_value("QVQLVESGGGLVQAEGSLRLSCAASGRTSVLYAMGWNRQAPGKEREFVAAITWNSGSTYYADSVKGRFTISRDNAKNTVYIQMTRLKPEDTAVYYCNADYYFSSYRSTYDYWGQGTQVTVSS")
"low polyreactivity"
>>> experimental_value("QVQLVESGGGLVQAGGSLRLSCAASGFTYKYYAMGWYRQAPGKERELVAAISGSGGRTYYADSVKGRFTISRDNAKNTVYLQMNSLKPEDTAVYYCAAVYLVTRGARYDYWGQGTQVTVSS")
"high polyreactivity"
>>> experimental_value("QVQLVESGGGLVQAGGSLRLSCADSGRIFGSNAMGWYRQAPGKERELVAAISWRGASTYYADSVKGRFTISRDNAKNTVYLQMNSLKPEDTAVYYCATRGQTRTTTRYYSWGQGTQVTVSS")
"high polyreactivity"
>>> experimental_value("QVQLVESGGGLVQAGGSLRLSCAASGLIFRYYAMGWYRQAPGKERELVAAISWSGASTYYADSVKGRFTISRDNAKNTVYLQMNSLKPEDTAVYYCGRVSYYYPSEYNYWGQGTQVTVSS")
"high polyreactivity"
>>> experimental_value("QVQLVESGGGLVQAGGSLRLSCAASGITFESNAMGWYRQAPGKEREFVAAISYDGGDTYYADSVKGRFTISRDNAKNTVYLQMNSLKPEDTAVYYCAAEPGWTMDYWGQGTQVTVSS")
"low polyreactivity"

Record polyreactivity (PSR sort gate) per entry; entries follow.
1. QVQLVESGGGLVQAGGSLRLSCAASGRIFWYNAMGWSRQAPGKERELVAAISSIDGTTYYADSLKGRFTISRDNAKNTFYLQMNSLKPEDTAVYYCAAEDPADQYDYWGQGTQVTVSS
2. QVQLVESGGGLVQAGGSLRLSCAASGYTFPLYALGWYRQAPGKERELVADINIGGASTYYADSVKGRFTISRDNAKNTVYLQMNSLKPEDTAVYYCAKEYYDGFFPTFDYDYWGQVTQVTVSS
3. QDQLVESAGGLVQAGGSLSLSCAASGNIFVYYAMGWYRQAPGKERELVAAITSDVSTYYADSVKGRFTISRDNAKNTVYLQMNSLKPEDTAVYYCATTGYGSYVIYGGQGTQVTVSS
4. QVQLVESGGGLVQAGGSLLLSCAASGRIFRPYAMGWYRQAPGKERELVAAISSSGGSTYYADSVKGRFTISRDNAKNTVYLEMNSLKPEDTAVYYCAARITQISYGSEIEHPYYYWGQGTQVTVSS

a:
high polyreactivity
low polyreactivity
low polyreactivity
high polyreactivity

Record polyreactivity (PSR sort gate) per entry; entries follow.
1. QVQLVESGGGLVQAGGSLRLSCAASGSIFDPYAMGWYRQAPGKERELVAGISFSGGRTYYADSVKGRFTISRDNAKNTVYLQMNSLKPEDTAVYYCNKLLTQGAYPYYFWGQGTQVTVSS
2. QVQLVESGGGLVQAGGSLRLSCAASGSIYPNYTMGWYRQAPGKERQLVAAITISGGTTYYSDSVKGRFTISRDNAKNTVYLQMISLKPEDTAVYYCADYHRDRNSGFDYWGQGTQVTVSS

a:
high polyreactivity
high polyreactivity
